biological target: AddAB helicase-nuclease (Helicobacter pylori 26695); assay: inhibition of H. pylori AddAB nuclease activity – biochemical, radioactivity, purified enzyme, IC50, late-stage follow-up (AID 602421); settings: radioactive DNA degradation
Activity calls are given as the source filed them. No rule for the calls is given here.
Give your call using only these classes: YES (active), NO (inactive)

Input: Write down the call the test reported for this compound. Item: "O=C(Nc1ncccn1)c1ccc([N+](=O)[O-])o1"
Output: NO

Input: Could you please tell me the result logged for "N#Cc1c(NC(=O)c2ccc([N+](=O)[O-])o2)sc2c1CCC2" in this assay?
Output: YES

====

biological target: AddAB helicase-nuclease (Helicobacter pylori 26695); experiment: inhibition of H. pylori AddAB nuclease activity – biochemical, radioactivity, purified enzyme, IC50, late-stage follow-up (AID 602421); settings: radioactive DNA degradation
Activity calls are given as the source filed them. How the calls were made is not given here.
Outcomes you can answer with include only these: t (active), f (inactive)

line_notation=COC(=O)c1c(-c2ccccc2)csc1NC(=O)c1cnccn1 target_system="AddAB helicase-nuclease (Helicobacter pylori 26695)" class=t
line_notation=CCn1cc(C(=O)O)c(=O)c2cnc(N3CCN(C(=S)NC(=O)c4cccc(C)c4)CC3)nc21 target_system="AddAB helicase-nuclease (Helicobacter pylori 26695)" class=f

Input: Status in this test for "NC(=O)c1ccsc1NC(=O)COC(=O)c1ccc([N+](=O)[O-])o1" ?
Output: f

Input: Status in this test for "O=C(NCc1cccnc1)c1ccc([N+](=O)[O-])o1" ?
Output: f

Input: Kindly provide the recorded test outcome for the following molecule: "O=C(OCC(=O)c1cccs1)c1ccc([N+](=O)[O-])o1"
Output: f

Input: For "CCn1cc(C(=O)O)c(=O)c2cc(F)c(N3CCN(C(=S)Nc4ccccc4C(F)(F)F)CC3)cc21" , what call appears in the results of this test?
Output: t

Input: Fill in: this test's call for "CC1(C)Cc2c(sc(NC(=O)c3ccco3)c2C#N)CO1" is ___
Output: f

Input: Hello, I am checking results. What call was entered for "O=C(Nc1ccc(N2CCOCC2)cc1)c1ccc([N+](=O)[O-])o1" ?
Output: f
